Give measured MIC for each item. Keep answers brief.
Biological target: UDP-3-O-acyl-N-acetylglucosamine deacetylase (Escherichia coli K-12) (UniProt P0A725)
Sequence (P0A725 whole entry): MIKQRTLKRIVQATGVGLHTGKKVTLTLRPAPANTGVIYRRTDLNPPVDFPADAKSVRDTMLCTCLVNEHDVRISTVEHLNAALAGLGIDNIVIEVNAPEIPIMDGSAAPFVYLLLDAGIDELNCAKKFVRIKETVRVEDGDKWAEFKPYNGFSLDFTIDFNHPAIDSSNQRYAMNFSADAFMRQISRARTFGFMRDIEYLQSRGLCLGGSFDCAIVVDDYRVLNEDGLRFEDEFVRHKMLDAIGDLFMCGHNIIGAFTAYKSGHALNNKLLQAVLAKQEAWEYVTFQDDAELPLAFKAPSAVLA
Assay: Inhibition of LpxC in Escherichia coli AB1157 assessed as reduction in microbial growth incubated for 22 hrs by MTT assay
Your answer should be a plain number; it is taken to be in µg/mL.

Enquiry: Please indicate MIC recorded for C[C@@H](O)[C@H](NC(=O)c1ccc(C#CC#CC2CC2)cc1O)C(=O)NO
Return: 0.078

Enquiry: Please indicate MIC recorded for C[C@@H](O)[C@H](NC(=O)c1ccc(C#CC#CC2CC2)cc1[N+](=O)[O-])C(=O)NO
Return: 0.6

Enquiry: Please indicate MIC recorded for CC(C)(N)[C@H](NC(=O)c1ccc(C#CC#CC2CC2)cc1O)C(=O)NO
Return: 0.078

Enquiry: Please indicate MIC recorded for C[C@@H](O)[C@H](NC(=O)c1ccc(C#CC#CC2CC2)cc1F)C(=O)NO
Return: 0.31

Enquiry: Please indicate MIC recorded for C[C@@H](O)[C@H](NC(=O)c1ccc(C#Cc2ccc(CN3CCOCC3)cc2)cc1)C(=O)NO
Return: 0.156
